Source listed as PubChem BioAssay (NCATS).

- assay: Quantitative High-Throughput drug screen in 47 multiple myeloma cell lines against the NCATS MIPE library collection: UTMC2_PLB cell viability assay (AID 1919868); further: potency means the concentration at half of the fitted maximal effect; nearly all actives have a fitted effect of over 55% in size
- test-conditions: CellTiter-Glo ATP luminescence, 48 h
Results filed as inconclusive are left out. Calls of active or inactive are those of the source. The call rests on the fitted dose curve; in most records, active means well fitted cell-killing curve with a large enough effect; inconclusive means small, poorly fitted or top-dose-only effect, or effect the other way; inactive means no such curve, though single readings can be large or run the other way.
// values below are reported Potency
readout-kind: Potency

>>> df
                                chem_smiles            result
0  C[C@@]12O[C@@H](C[C@]1(O)CO)n1c3ccccc3c3c4c(c5c6ccccc6n2c5c31)CNC4=O   118 nM (active)
1  COc1cc(=C2C=c3ccccc3=N2)[nH]c1=Cc1[nH]c(C)cc1C  2090 nM (active)
2  CN1CCN(c2cc(C(=O)Nc3ccc4c(c3)-c3c(c(C(N)=O)nn3-c3ccc(F)cc3)CC4)c(Cl)cn2)CC1  2090 nM (active)
